From: patent EP4737450A1

pIC50 values for the molecules below.
# TARGET SYSTEM: plasma kallikrein (PKa) (Homo sapiens, UniProt P03952)
# Construct: purchased R & D 2497-SE
# Sequence (P03952 391-638 limits assumed): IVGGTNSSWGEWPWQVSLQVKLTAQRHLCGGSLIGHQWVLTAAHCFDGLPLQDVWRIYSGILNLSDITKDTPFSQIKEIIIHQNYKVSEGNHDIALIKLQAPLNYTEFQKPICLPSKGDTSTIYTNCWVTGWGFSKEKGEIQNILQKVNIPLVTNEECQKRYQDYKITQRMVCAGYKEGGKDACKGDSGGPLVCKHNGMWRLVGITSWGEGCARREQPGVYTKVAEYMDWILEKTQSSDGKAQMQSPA
# Sequence (P03952 20-390 partner limits assumed): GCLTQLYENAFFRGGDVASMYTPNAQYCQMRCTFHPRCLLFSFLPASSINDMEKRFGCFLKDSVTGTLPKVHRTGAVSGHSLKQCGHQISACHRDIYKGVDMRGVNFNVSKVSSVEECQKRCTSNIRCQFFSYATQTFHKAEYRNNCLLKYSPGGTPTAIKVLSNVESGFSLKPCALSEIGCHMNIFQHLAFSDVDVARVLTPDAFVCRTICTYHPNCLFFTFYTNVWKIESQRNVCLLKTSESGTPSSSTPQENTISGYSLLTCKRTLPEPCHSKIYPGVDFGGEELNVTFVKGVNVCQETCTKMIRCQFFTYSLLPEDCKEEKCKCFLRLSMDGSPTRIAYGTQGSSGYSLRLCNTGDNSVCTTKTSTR
# ASSAY METHOD TEXT: PKa inhibition in kaolin-activated human platelet-poor plasma (PPP)
# Format: biochemical
# REPORTED CONDITIONS: Pro-Phe-Arg-AMC substrate, fluorescence signal
Just so you know, pIC50 here is -log10 of the concentration in molar units; reply with that number alone.

Worked examples, 3 molecules total:
In [3]: df
Out[3]:
                                   molecule                             target_system  measured_parameter  result
0  Nc1noc2ccc(CNC(=O)c3cnn(Cc4ccc(Cn5ccccc5=O)cc4)c3)cc12 [Compound 214]  plasma kallikrein (PKa) (Homo sapiens, UniProt P03952)               pIC50    7.83
1  Cc1cc(N)nc(C)c1CNC(=O)c1nn(Cc2ccc(Cn3ccccc3=O)cc2)cc1C1CCCO1 (stereo not drawn) [Compound 4]  plasma kallikrein (PKa) (Homo sapiens, UniProt P03952)               pIC50    7.88
2  COCc1nn(Cc2ccc(Cn3cccn3)cc2)cc1C(=O)NCc1c(C)cc(N)nc1C [Compound 14]  plasma kallikrein (PKa) (Homo sapiens, UniProt P03952)               pIC50    8.12

Asked: May I ask what pIC50 has been recorded for Cc1cc(N)nc(C)c1CNC(=O)c1ncn(Cc2ccc(Cn3ccccc3=O)cc2)n1 [Compound 11] ?
Given back: 8.22

Asked: Also N=C(N)c1ccc(CNC(=O)c2cnn(Cc3ccc(CC4CC4)cc3)c2)cn1 [Compound 242] , if possible.
Given back: 7.39

Asked: # repeat for Cc1cc(N)nc(C)c1CNC(=O)c1cn(Cc2ccc(Cn3ccccc3=O)cc2)nn1 [Compound 1]
Given back: 8.12

Asked: And N#Cc1cc(N2CC3C(C2)C3(F)F)ccc1Cn1cc(C(=O)NCc2ccc(C(=N)N)cc2)cn1 (stereo not drawn) [Compound 40] ?
Given back: 8.67

Asked: Let us now turn to COCc1nn(Cc2ccc(Cn3ccccc3=O)cc2)cc1C(=O)NCc1ccc(C(=N)N)cc1F [Compound 241]
Given back: 7.71

Asked: Would you kindly repeat that for Cc1cc(N)nc(C)c1CNC(=O)c1coc(Cc2cn3cc(C4CC4)ccc3n2)n1 [Compound 19] ?
Given back: 7.63

Asked: Here is the next molecule: N#Cc1cccc([C@@H](NCC2CC2)c2ccc(F)c(NC(=O)c3cc(C(F)(F)F)nn3-c3cccc(CN)c3)c2)c1 [Berotralstat, reference compound]
Given back: 7.25

Asked: And for Cc1cc(N)nc(C)c1CNC(=O)c1ncn(Cc2ccc(Cn3cc(F)ccc3=O)cc2)n1 [Compound 23] ?
Given back: 8.10

Asked: // next record Nc1nccc2cc(CNC(=O)c3ncn(Cc4ccc(Cn5ccccc5=O)cc4)n3)ccc12 [Compound 76]
Given back: 7.90

Asked: Quick one: Cc1cc(N)nc(C)c1CNC(=O)c1cnc(Cc2cn3cc(C4CC4)ccc3n2)o1 [Compound 18]
Given back: 8.10

----------
# TARGET SYSTEM: plasma kallikrein (PKa) (Homo sapiens, UniProt P03952)
# Construct: purchased R & D 2497-SE
# ASSAY METHOD TEXT: Inhibitory activity against plasma kallikrein in vitro (fluorescence intensity enzyme assay, Pro-Phe-Arg-AMC substrate)
# Type: biochemical
# REPORTED CONDITIONS: plasma kallikrein enzyme assay, Pro-Phe-Arg-AMC substrate; read-out: PKa IC50
// reported IC50 for each item listed
# output: bare number, implied unit nM

Asked: Reported IC50 for COCc1nn(Cc2ccc(N3CC4C(C3)C4(F)F)cc2C#N)cc1C(=O)NCc1c(C)cn2cncc2c1C (stereo not shown) [Compound 188] : what is it?
Given back: 2.74

Asked: Repeat with COCc1nn(Cc2ccc(Cn3ccccc3=O)cc2)cc1C(=O)NCc1cc2ccncc2n1C [Compound 135]
Given back: 131

Asked: # repeat for N=C(N)c1cnc(CNC(=O)c2cnn(Cc3ccc(CC4CC4)cc3)c2)c(F)c1 [Compound 358]
Given back: 6.06

Asked: Also COCc1nn(Cc2ccc(Cn3ccccc3=O)cc2)cc1C(=O)NCc1cc2cnccc2[nH]1 [Compound 108] ?
Given back: 36.8

Asked: # repeat for Cc1nc(N)c(C)c(C)c1CNC(=O)c1ncn(Cc2ccc(Cn3ccccc3=O)cc2)n1 [Compound 250]
Given back: 1.9

Asked: Would you mind doing Cn1ccc2cnc(CNC(=O)c3cn(Cc4ccc(Cn5ccccc5=O)cc4)nc3C3COC3)c(F)c21 [Compound 338] as well?
Given back: 1.38

Asked: Entry to check: COc1ccnc(CNC(=O)c2cn(Cc3ccc(Cn4ccccc4=O)cc3)nc2CN2CCC(OC)CC2)c1F [Compound 201]
Given back: 10.8

Asked: Similarly, Cc1cc2nccn2c(C)c1CNC(=O)c1cnn(Cc2ccc(Cn3ccccc3=O)cc2)c1 [Compound 94] ?
Given back: 0.53

Asked: Same thing, different molecule: N=C(N)c1ccc(CNC(=O)c2cnn(Cc3ccc(CC4CC4)cc3)c2)cc1 [Compound 105]
Given back: 0.26

Asked: Next molecule: CN(C)c1ccnc(CNC(=O)c2cn(Cc3ccc(Cn4ccccc4=O)cc3)nc2N2CC3(C2)OCC3(C)C)c1F [Compound 313]
Given back: 3.24

Asked: Input N=C(N)c1ccc(CNC(=O)c2cnn(Cc3cc(Cl)c(CC4CC4)c(Cl)c3)c2)cc1 [Compound 372]
Given back: 0.85

Asked: Follow-up entry: COCc1nn(Cc2ccc(Cn3c(=O)ccc4ccccc43)cc2)cc1C(=O)NCc1nccc(OC)c1F [Compound 159]
Given back: 93.8

Asked: Now give it for Cc1cc(N)nc(C)c1CNC(=O)c1cnn(Cc2ccc3ncc(Cl)cc3c2)c1 [Compound 10] too.
Given back: 0.132

Asked: Please answer likewise for Cc1cc(N)nc(C)c1CNC(=O)c1ncn(Cc2cn3cc(C4CC4)ccc3n2)n1 [Compound 47]
Given back: 0.18

Asked: Okay, and COc1ccc(F)c(CNC(=O)c2cn(Cc3ccc(Cn4cc(F)ccc4=O)cc3)nc2COCCN2CCCC2)c1F [Compound 231] ?
Given back: 3.66

Asked: Let us now turn to Cn1ncc2cnc(CNC(=O)c3cnn(Cc4ccc(Cn5ccccc5=O)cc4)c3)c(F)c21 [Compound 376]
Given back: 67

Asked: Repeat for the following molecule: COc1ccc(F)c(CNC(=O)c2cn(Cc3ccc(Cn4ccccc4=O)cc3)nc2N2CC(C)(OC)C2)c1F [Compound 291]
Given back: 5.9

Asked: What do you have for O=C(NCc1nccc(C2CC2)c1F)c1cn(Cc2ccc(Cn3ccccc3=O)cc2)nc1C1CC(F)(F)C1 [Compound 340] ?
Given back: 48

Asked: Now this one: COCc1nn(Cc2ccc(Cn3ccccc3=O)cc2)cc1C(=O)NCc1ncc2cc[nH]c2c1F [Compound 364]
Given back: 2.06

Asked: Now consider COc1ccnc(CNC(=O)c2[nH]cc(Cc3ccc(Cn4ccccc4=O)cc3)c2C)c1F [Compound 151] and answer again.
Given back: 544

Asked: N#Cc1cccc([C@@H](NCC2CC2)c2ccc(F)c(NC(=O)c3cc(C(F)(F)F)nn3-c3cccc(CN)c3)c2)c1 [Berotralstat, reference compound] ?
Given back: 2.21

Asked: What do you get for Cc1cc(N)nc(C)c1CNC(=O)c1ncn(Cc2ccc(Cn3cccc(C)c3=O)cc2)n1 [Compound 56] ?
Given back: 0.16

Asked: Now consider Nc1nccc2cc(CNC(=O)c3ncn(Cc4ccc(Cn5ccccc5=O)cc4)n3)ccc12 [Compound 76] .
Given back: 0.96

Asked: Input CN(C)c1ccnc(CNC(=O)c2cn(Cc3ccc(CC4CC4)cc3)nc2C2COC2)c1F [Compound 334]
Given back: 421

Asked: Please give the result for COc1ccnc(CNC(=O)c2cn(Cc3ccc(Cn4ccccc4=O)cc3)nc2CN2CCN(C)CC2)c1F [Compound 213] too.
Given back: 35

Asked: Similarly, COCc1nn(Cc2ccc(Cn3c(=O)sc4cccc(F)c43)cc2)cc1C(=O)NCc1nccc(OC)c1F [Compound 160] ?
Given back: 413
